This collection of values is drawn from patent US20210300943A1.

target: OGA (Homo sapiens, UniProt O60502); construct: endogenous in cells; host or cells: HEK293 cells inducible for P301L mutant human Tau (2N4R); test: OGA cellular assay (ICC detection of O-GlcNAcylated proteins in HEK293 cells inducible for P301L mutant human Tau); format: cell-based; settings: HEK293, HEK293 cells inducible for P301L mutant human Tau, maximal effect; Thiamet G 200 uM as maximum
Emax for assorted compounds

compound	measurement.target	Emax
COc1cc(NC[C@H]2CCCN(C(C)c3ccc4c(n3)OCCO4)C2)cc(C)n1 (mixture of isomers) [Product 24]	OGA (Homo sapiens, UniProt O60502)	69%

Continue with the next compound.
Asked: Need Emax, item CC(c1nc2c(cc1F)OCCO2)N1CCC[C@@H](CNc2ccc(F)cc2)C1 (stereo partly shown)
Given back: 112%

###

target: recombinant human Meningioma Expressed Antigen 5 (MGEA5), also referred to as O-GlcNAcase (OGA) (Homo sapiens, UniProt O60502); construct: Full length OGA enzyme was purchased at OnGene (cat #TP322411); purchased OnGene (so in the source); experiment: OGA biochemical assay (inhibition of FM-GlcNAc hydrolysis, fluorescence); conditions: maximal effect
Listed below: Enzymatic Emax (%) values for each entry.
Return type: number; implicit unit %.

molecule	Enzymatic Emax (%)
Cc1cc(C[C@H]2CCCN(C(C)c3ccc4c(n3)OCC(=O)N4)C2)cc(C)n1 (single isomer, unassigned) [Product 60]	78

Asked: # input molecule: Cc1cc(CO[C@H]2CCCN(C(C)c3ccc4c(n3)OCCO4)C2)cc(C)n1 (single isomer, unassigned) ; wanted: its Enzymatic Emax (%)
Given back: 97

Asked: Item Cc1cc(C[C@H]2CCCN(C(C)c3cnc4c(c3)OCCN4)C2)cc(C)n1 (single isomer, unassigned) has what recorded Enzymatic Emax (%)?
Given back: 104

Asked: Quick one: Enzymatic Emax (%) of Cc1cc(CO[C@H]2CCCN(C(C)c3nc4c(cc3F)OCCO4)C2)cc(C)n1 (single isomer, unassigned) ?
Given back: 98

Asked: What value of measured Enzymatic Emax (%) is listed for Cc1cc(OC[C@H]2CCCN(C(C)c3nc4c(cc3F)CCO4)C2)cc(C)n1 (single isomer, unassigned) ?
Given back: 99

Asked: GET /values?readout=Enzymatic Emax (%)&item= Cc1cc(OC[C@H]2CCCN(C(C)c3nc4c(cc3F)OCCO4)C2)cc(C)n1 (single isomer, unassigned)
Given back: 97

###

A collection of molecules and their measured EC50
Target: OGA (Homo sapiens, UniProt O60502)
Construct: endogenous in cells; host or cells: HEK293 cells inducible for P301L mutant human Tau (2N4R)
Sequence (O60502 1-916): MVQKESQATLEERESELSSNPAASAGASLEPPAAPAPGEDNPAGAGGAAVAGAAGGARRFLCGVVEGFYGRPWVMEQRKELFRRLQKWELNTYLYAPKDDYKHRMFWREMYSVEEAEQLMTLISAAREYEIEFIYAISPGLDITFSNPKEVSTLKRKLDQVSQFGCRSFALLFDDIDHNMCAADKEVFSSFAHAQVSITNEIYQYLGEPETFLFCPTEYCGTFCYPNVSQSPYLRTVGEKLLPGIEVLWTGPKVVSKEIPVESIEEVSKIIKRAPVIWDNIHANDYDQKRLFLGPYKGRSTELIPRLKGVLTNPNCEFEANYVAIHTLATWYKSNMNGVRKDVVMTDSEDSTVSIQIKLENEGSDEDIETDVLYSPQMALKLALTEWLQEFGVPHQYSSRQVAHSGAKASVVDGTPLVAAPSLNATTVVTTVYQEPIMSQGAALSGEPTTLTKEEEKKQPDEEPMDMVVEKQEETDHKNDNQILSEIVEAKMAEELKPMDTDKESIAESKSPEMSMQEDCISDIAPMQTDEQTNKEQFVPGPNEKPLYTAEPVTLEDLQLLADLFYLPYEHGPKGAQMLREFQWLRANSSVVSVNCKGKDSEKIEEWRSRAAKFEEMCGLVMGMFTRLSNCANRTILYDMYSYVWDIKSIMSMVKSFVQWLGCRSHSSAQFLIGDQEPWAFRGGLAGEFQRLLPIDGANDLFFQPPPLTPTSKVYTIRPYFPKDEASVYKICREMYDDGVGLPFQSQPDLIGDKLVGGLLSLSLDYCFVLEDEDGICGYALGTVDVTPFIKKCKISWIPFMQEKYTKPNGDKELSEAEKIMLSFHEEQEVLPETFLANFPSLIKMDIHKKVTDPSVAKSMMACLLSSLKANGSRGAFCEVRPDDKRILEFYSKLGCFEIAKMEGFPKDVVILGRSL
Test: OGA cellular assay (ICC detection of O-GlcNAcylated proteins in HEK293 cells inducible for P301L mutant human Tau)
Format: cell-based
Settings: HEK293 cells inducible for P301L mutant human Tau, 6 hours incubation; read-out: Cellular hOGA; pEC50 (converted)

# annotated cases, reported EC50 shown
molecule	measure	experimental.value
Cc1cc(CO[C@H]2CCCN(C(C)c3ccc4c(n3)OCCO4)C2)cc(C)n1 (single isomer, unassigned) [Product 167]	EC50	> 1000 nM
Cc1cc(OC2CCCN(C(C)c3ccc4c(n3)OCCO4)C2)cc(C(F)(F)F)n1 (stereo not drawn)	EC50	> 1000 nM
Cc1cc(OC[C@H]2CCCN(C(C)c3ccc4c(n3)OCCO4)C2)cc(C)n1 (single isomer, unassigned) [Product 139]	EC50	20 nM
Cc1cc(CN[C@H]2CCCN(C(C)c3nc4c(cc3F)OCCO4)C2)cc(C)n1 (stereo partly drawn)	EC50	31.6 nM
Cc1cc(CO[C@H]2CCCN(C(C)c3nc4c(cc3F)OCCO4)C2)cc(C)n1 (single isomer, unassigned) [Product 170]	EC50	12.6 nM
Cc1cc(C[C@H]2CCCN(C(C)c3ccc4c(n3)OCCO4)C2)cc(C(F)(F)F)n1 (mixture of isomers)	EC50	50.1 nM
Cc1cc([C@@H]2CCCN([C@@H](C)c3ccc4c(n3)OCCO4)C2)cc(C)n1 (single isomer, unassigned)	EC50	> 1000 nM
Cc1cc([C@H]2CCCN(C(C)c3cnc4c(c3)OCCN4)C2)cc(C)n1 (single isomer, unassigned)	EC50	25.1 nM

Asked: Item: Cc1cnc(OC2CCCN(C(C)c3ccc4c(n3)OCCO4)C2)c(C)n1 (stereo not drawn) Test system: OGA (Homo sapiens, UniProt O60502) Read-out: EC50 Value: ?
Given back: 501 nM

Asked: GET /values?readout=EC50&system=OGA (Homo sapiens, UniProt O60502)&item= Cc1cc(NC[C@H]2CCCN(C(C)c3nc4c(cc3F)OCCO4)C2)cc(C)n1 (stereo partly drawn)
Given back: 1.58 nM

Asked: Form field - read-out: EC50; system: OGA (Homo sapiens, UniProt O60502); submitted item: Cc1cc([C@@H]2CCCN([C@H](C)c3ccc4c(n3)OCCO4)C2)cc(C)n1 (single isomer, unassigned)
Given back: > 1000 nM

Asked: Notebook entry, OGA (Homo sapiens, UniProt O60502) assay: EC50 of Cc1cc(OC[C@@H]2CCCN(C(C)c3cnc4c(c3)OCCN4)C2)cc(C)n1 (stereo partly drawn) = ?
Given back: > 1000 nM

Asked: GET /values?readout=EC50&system=OGA (Homo sapiens, UniProt O60502)&item= Cc1cc(C2CCCN([C@H](C)c3ccc4c(n3)OCCO4)C2)nc(C)n1 (mixture of isomers)
Given back: 794 nM

Asked: Which EC50 is reported with OGA (Homo sapiens, UniProt O60502) for this entry: Cc1cc(C[C@H]2CCCN(C(C)c3cc4c(cc3F)OCCO4)C2)cc(C(F)(F)F)n1 (mixture of isomers) ?
Given back: 39.8 nM

Asked: Lab request: please report EC50 under test system OGA (Homo sapiens, UniProt O60502) for Cc1cc(CO[C@H]2CCCN(C(C)c3ccc4c(n3)OCCO4)C2)cc(C)n1 (single isomer, unassigned) [Product 166]
Given back: 100 nM

Asked: Recorded EC50 for Cc1cc(CC2(F)CCCN([C@@H](C)c3nc4c(cc3F)OCCO4)C2)cc(C)n1 (single isomer, unassigned) with OGA (Homo sapiens, UniProt O60502), please?
Given back: > 1000 nM

Asked: Param readout = EC50; param system = OGA (Homo sapiens, UniProt O60502); param query = `COc1cc(C[C@H]2CCCN([C@H](C)c3ccc4c(n3)OCCO4)C2)cc(C)n1` ; response: value
Given back: 15.8 nM

Asked: Give EC50 (OGA (Homo sapiens, UniProt O60502)) of the following molecule: Cc1cc(CO[C@H]2CCCN(C(C)c3nc4c(cc3F)OCCO4)C2)cc(C)n1 (single isomer, unassigned) [Product 169]
Given back: > 1000 nM

Asked: Recall the recorded EC50 for COc1cc(OC[C@H]2CCCN([C@H](C)c3ccc4c(n3)OCCO4)C2)cc(C)n1 (single isomer, unassigned) [Product 183] with OGA (Homo sapiens, UniProt O60502) and state it.
Given back: 50.1 nM

Asked: Notebook: pull reported EC50 for OGA (Homo sapiens, UniProt O60502), entry Cc1cc(NC[C@H]2CCCN(C(C)c3ccc4c(n3)OCCO4)C2)nc(C)n1 (stereo partly drawn)
Given back: 15.8 nM

Asked: Which EC50 is reported with OGA (Homo sapiens, UniProt O60502) for this entry: Cc1cc(CO[C@@H]2CCCN([C@H](C)c3ccc4c(n3)OCCO4)C2)cc(C)n1 (mixture of isomers) ?
Given back: > 1000 nM
